The measured values listed here are drawn from PubChem BioAssay (NCI).

# System: LOX IMVI melanoma
# METHOD SUMMARY: NCI-60 one-dose screen, 48 h (100 = growth as untreated, 0 = no growth, -100 = all killed)
# CONDITION DESCRIPTION: 10 µM unless noted
About 83,000 compounds went through this panel and 20% of them were active in at least one assay; those are over-represented in the sample as a whole.
# growth values compiled below
The response must be a number in % with no trailing unit.

Example entries and their recorded answers appear below.
- COMPOUND STRUCTURE: "CCOc1ccc2nc(-c3cccc(OCC(=O)NC(C)C)c3)nc(Nc3ccc(-c4cn[nH]c4)cc3)c2c1"
  EXPERIMENTAL SYSTEM: "LOX IMVI melanoma"
  VALUE UNIT: "%"
  REPORTED VALUE: -10.8
- COMPOUND STRUCTURE: "CCOC(=O)C(=CNc1ccccc1[N+](=O)[O-])C(=O)OCC"
  EXPERIMENTAL SYSTEM: "LOX IMVI melanoma"
  VALUE UNIT: "%"
  REPORTED VALUE: 99.9
- COMPOUND STRUCTURE: "O=C(Nc1ccccn1)[C@H](O)[C@@H](O)C(=O)N1CCOCC1"
  EXPERIMENTAL SYSTEM: "LOX IMVI melanoma"
  VALUE UNIT: "%"
  REPORTED VALUE: 104

What measured growth goes with CCCCCOC(=O)c1ccc(NC(=O)CNCC(C)C)cc1 ?
94.4

Entry O=C(NCCN1CCC(O)CC1)c1cc2c(o1)C(=O)c1ccccc1C2=O please
-89.3

---

# growth values compiled below
# Tested on: SR leukemia
# METHOD SUMMARY: NCI-60 one-dose screen, 48 h (100 = growth as untreated, 0 = no growth, -100 = all killed)
# CONDITION DESCRIPTION: 10 µM unless noted
About 83,000 compounds went through this panel and 20% of them were active in at least one assay; those are over-represented in the sample as a whole.
The response must be a number in % with no trailing unit.

Example entries and their recorded answers appear below.
- COMPOUND: "CN1C(=O)CCC(N2C(=O)c3cccc(NCCOCCOCCNC(=O)c4cc5c(o4)C(=O)c4ccccc4C5=O)c3C2=O)C1=O (stereo not given)"
  REPORTED VALUE: 7.99
- COMPOUND: "N#C/C(=C\\c1ccc2c(c1)OCO2)n1nnc2ccccc21"
  REPORTED VALUE: 28
- COMPOUND: "N=C(N)c1ccc(-c2ccc(-c3ccc(Cl)cn3)s2)cc1"
  REPORTED VALUE: 6.63
- COMPOUND: "O=C(/C=C/C12c3ccccc3C(c3ccccc31)C1C(=O)N(c3ccc(Cl)cc3)C(=O)C12)c1ccccn1 (stereo not given)"
  REPORTED VALUE: 13.6
- COMPOUND: "O=C(CCCCCCCn1cc(-c2cccnc2)nn1)Nc1ccccc1-c1ccccc1"
  REPORTED VALUE: 49.2
- COMPOUND: "N#Cc1cnn2c(-c3ccc(Cl)cc3)nc(NCCc3ccccc3)nc12"
  REPORTED VALUE: 83.5
- COMPOUND: "CN(C)c1ccc(/C=C2\\C=C(c3ccccc3)N(CCc3ccccc3)C2=O)cc1"
  REPORTED VALUE: 23.5
- COMPOUND: "CCCCNC(=O)c1cc(NCc2cc(O)ccc2O)ccc1O"
  REPORTED VALUE: 41.1

What measured growth goes with CCN(CC)CCOC(=O)Nc1ccccc1Cl ?
102

Entry NC(=S)c1csc(CCNC(=O)c2ccccc2)n1 please
107

Entry COc1cc(C(=O)/C=C/c2c(-c3ccc(F)cc3)nc3ncccn23)cc(OC)c1OC please
9.6

Entry CCOC(=O)c1ccc(NC(=O)CCCN(CC)CC)cc1 please
92.8

Entry COc1ccc(-c2cn(-c3cccc(C(=O)/C=C/c4cc(OC)c(OC)c(OC)c4)c3)c(=O)[nH]2)cc1 please
-12.5

Entry CCCCC1COc2cccc3c(SCC(=O)N(C)c4cccc(Cl)c4)cc[n+]1c23 (stereo not given) please
100
